# Tested on: Ps. aeruginosa DY-2
# method-description: MIC by agar dilution, Ps. aeruginosa DY-2
# Format: cell-based
# measurement-context: Pseudomonas aeruginosa, DY2, 17 h; Ps. aeruginosa DY-2; agar dilution, Mueller-Hinton agar; read-out: Minimal Inhibitory Concentration (MIC)
property-measured: MIC (µg/mL)
Numbers only here, please. The scale is µg/mL.

Example molecules with recorded MIC:
>  <molecule>
CO/N=C(\C(=O)N[C@@H]1C(=O)N2C(C(=O)[O-])=C(C[n+]3ccn4c(Br)ccc4c3C)CS[C@H]12)c1nsc(N)n1

>  <measurement-target>
Ps. aeruginosa DY-2

>  <MIC / µg/mL>
12.5

$$$$
>  <molecule>
CO/N=C(\C(=O)N[C@@H]1C(=O)N2C(C(=O)[O-])=C(C[n+]3ccn4c(C(C)C)cc(C(C)C)c4c3)CS[C@H]12)c1csc(N)n1

>  <measurement-target>
Ps. aeruginosa DY-2

>  <MIC / µg/mL>
100

$$$$
>  <molecule>
CCON=C(C(=O)NC1C(=O)N2C(C(=O)[O-])=C(C[n+]3ccn4c(C(N)=O)ccc4c3)CSC12)c1csc(N)n1 (stereo not drawn)

>  <measurement-target>
Ps. aeruginosa DY-2

>  <MIC / µg/mL>
6.25

$$$$

// query Name the reported MIC value associated with the molecule CCON=C(C(=O)NC1C(=O)N2C(C(=O)[O-])=C(C[n+]3ccn4c(Cl)ccc4c3)CSC12)c1csc(N)n1 (stereo not drawn)
// result 6.25

// query Next record, please: Nc1nc(C(=NOCF)C(=O)NC2C(=O)N3C(C(=O)[O-])=C(C[n+]4ccn5cccc5c4)CSC23)cs1 (stereo not drawn)
// result 3.13

// query Request: `CCO/N=C(\C(=O)N[C@@H]1C(=O)N2C(C(=O)[O-])=C(C[n+]3ccn4cccc4c3C)CS[C@H]12)c1csc(N)n1`
// result 3.13

Origin of values: patent US5593984A
